Target: G-protein coupled receptor 35 (Homo sapiens, UniProt Q9HC97)
Sequence (Q9HC97 whole entry, the tested form may be a part): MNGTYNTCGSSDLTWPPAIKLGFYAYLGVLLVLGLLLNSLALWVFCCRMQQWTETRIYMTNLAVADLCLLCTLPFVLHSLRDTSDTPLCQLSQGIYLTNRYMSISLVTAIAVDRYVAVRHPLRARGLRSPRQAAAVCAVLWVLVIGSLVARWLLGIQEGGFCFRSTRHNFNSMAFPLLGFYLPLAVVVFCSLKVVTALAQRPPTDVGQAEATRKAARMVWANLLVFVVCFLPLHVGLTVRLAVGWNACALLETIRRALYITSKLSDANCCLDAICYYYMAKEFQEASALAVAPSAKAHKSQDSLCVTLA
Assay: Agonist activity at TEV protease cleavage site linked GAL4-VP16-fused GPR35 in human Tango GPR35-bla U2OS cells assessed as induction of TEV protease-tagged beta-arrestin recruitment incubated for 5 hrs by beta-lactamase reporter gene assay
OBSERVED PROPERTY: pEC50
Would you please state pEC50, meaning minus log10 of the concentration in mol/L, as a bare number?

O=C(O)c1cc2cc(Br)c(O)c([N+](=O)[O-])c2oc1=O = 6.32
COc1c(Br)cc2cc(-c3nnn[nH]3)c(=O)oc2c1Br = 4.85
O=c1oc2c(Br)c(O)c(Br)cc2cc1-c1nnn[nH]1 = 5.81

input: Return pEC50 for the following molecule: O=c1oc2c([N+](=O)[O-])c(O)c(Br)cc2cc1-c1nnn[nH]1
output: 6.71

input: Return pEC50 for the following molecule: O=C(O)c1cc2cc(Br)c(O)c(Br)c2oc1=O
output: 5.44

input: Return pEC50 for the following molecule: O=c1oc2c(Br)cc(Br)cc2cc1-c1nnn[nH]1
output: 5.15

input: Return pEC50 for the following molecule: O=c1oc2c([N+](=O)[O-])c(O)c([N+](=O)[O-])cc2cc1-c1nnn[nH]1
output: 6.54

----------
Molecular target: UniProt Q9HC97
Experiment: Agonist activity at GPR35 in human HT-29 cells by DMR assay
Type: cell-based
Conditions: read-out: EC50
OBSERVED PROPERTY: EC50 (µM)
Answer in µM, number only, no unit symbol.

O=C(O)c1cc2cc(Br)cc(Br)c2oc1=O = 1.75
COc1cc2oc(=O)c(-c3nnn[nH]3)cc2cc1Br = 14.8
O=c1oc2c(Br)cc(Br)cc2cc1-c1nnn[nH]1 = 0.93
COc1c(Br)cc2cc(C(=O)O)c(=O)oc2c1Br = 0.89
O=C(O)c1cc2ccccc2oc1=O = 92.3

input: Return EC50 for the following molecule: O=c1oc2cc(O)c(Br)cc2cc1-c1nnn[nH]1
output: 0.71

input: Return EC50 for the following molecule: O=C(O)c1cc2cc(Br)cc([N+](=O)[O-])c2oc1=O
output: 4.27

input: Return EC50 for the following molecule: COc1c(Br)cc2cc(-c3nnn[nH]3)c(=O)oc2c1[N+](=O)[O-]
output: 2.66

input: Return EC50 for the following molecule: O=c1oc2c([N+](=O)[O-])c(O)c([N+](=O)[O-])cc2cc1-c1nnn[nH]1
output: 0.014

input: Return EC50 for the following molecule: COc1c(Br)cc2cc(-c3nnn[nH]3)c(=O)oc2c1Br
output: 1.41

input: Return EC50 for the following molecule: N#Cc1cc2cc(Br)c(O)c(Br)c2oc1=O
output: 2.33

input: Return EC50 for the following molecule: O=c1oc2ccccc2cc1-c1nn[nH]n1
output: 6.76

input: Return EC50 for the following molecule: N#Cc1cc2cc(Cl)ccc2oc1=O
output: 21.4

----------
Molecular target: G-protein coupled receptor 35 (Homo sapiens, UniProt Q9HC97)
Assay: Agonist activity at TEV protease cleavage site linked GAL4-VP16-fused GPR35 in human Tango GPR35-bla U2OS cells assessed as induction of TEV protease-tagged beta-arrestin recruitment incubated for 5 hrs by beta-lactamase reporter gene assay relative to zaprinast
Each entry below carries its reported Efficacy.
Answer in %, number only, no unit symbol.

Solved cases (3 shown):
CCCOc1ccccc1-c1nc2[nH]nnc2c(=O)[nH]1 = 100
O=c1oc2c([N+](=O)[O-])c(O)c(Br)cc2cc1-c1nnn[nH]1 = 104
O=C(O)c1cc2cc(Br)c(O)c(Br)c2oc1=O = 168

input: Determine reported Efficacy for O=C(O)c1cc2cc(Br)c(O)c([N+](=O)[O-])c2oc1=O ; test system: G-protein coupled receptor 35 (Homo sapiens, UniProt Q9HC97).
output: 111

input: Determine reported Efficacy for O=c1oc2c(Br)cc(Br)cc2cc1-c1nnn[nH]1 ; test system: G-protein coupled receptor 35 (Homo sapiens, UniProt Q9HC97).
output: 81.3

input: Determine reported Efficacy for O=c1oc2c(Br)c(O)c(Br)cc2cc1-c1nnn[nH]1 ; test system: G-protein coupled receptor 35 (Homo sapiens, UniProt Q9HC97).
output: 126

These data points were gathered from ChEMBL document CHEMBL4041526.
